Reported values of Minimum inhibitory concentration for individual entries
Tested on: Streptococcus pyogenes S—8
PROTOCOL_TEXT: Anti-bacterial test, minimum inhibitory concentration on agar
Assay type: cell-based
MEASUREMENT_CONTEXT: Streptococcus pyogenes S—8; medium B—TSA
READOUT_TYPE: Minimum inhibitory concentration

1. CCN1CCN(C(=O)NC(C(=O)NC2CN(S(=O)(=O)[O-])C2=O)c2cccs2)C(=O)C1=O.[Na+] (racemic) :: 3.13 µg/mL
2. CCN1CCN(C(=O)N[C@H](C(=O)NC2CN(S(=O)(=O)[O-])C2=O)c2cccs2)C(=O)C1=O.[Na+] (stereo partly shown) :: 3.13 µg/mL
3. CCCCCCCCN1CCN(C(=O)NC(C(=O)NC2CN(S(=O)(=O)[O-])C2=O)c2cccs2)C(=O)C1=O.[Na+] (stereo not shown) :: 1.56 µg/mL
4. O=C(NC1CN(S(=O)(=O)[O-])C1=O)C(NC(=O)N1CCN(N=Cc2ccco2)C1=O)c1cccs1.[Na+] (stereo not shown) :: 0.78 µg/mL

###

Measured MIC, listed per entry for reference.
Tested on: Streptococcus pneumoniae Type I
PROTOCOL_TEXT: Anti-bacterial test, minimum inhibitory concentration on agar
Assay type: cell-based
MEASUREMENT_CONTEXT: Streptococcus pneumoniae Type I; medium B—TSA; read-out: Minimum inhibitory concentration
READOUT_TYPE: MIC (mg/L)

1) CCN1CCN(C(=O)N[C@@H](C(=O)NC2CN(S(=O)(=O)O)C2=O)c2ccccc2)C(=O)C1=O (single isomer, unassigned) :: 6.25
2) O=C(NC1CN(S(=O)(=O)O)C1=O)[C@H](NC(=O)N1CCN(N=Cc2ccco2)C1=O)c1ccccc1 (some centres unmarked) :: 1.56
3) O=C(NC1CN(S(=O)(=O)O)C1=O)[C@H](NC(=O)N1CCN(N=Cc2cccs2)C1=O)c1ccccc1 (some centres unmarked) :: 1.56
4) CCCCCCCCN1CCN(C(=O)N[C@@H](C(=O)NC2CN(S(=O)(=O)O)C2=O)c2ccccc2)C(=O)C1=O (some centres unmarked) :: 3.13
5) CCN1CCN(C(=O)NC(C(=O)NC2CN(S(=O)(=O)O)C2=O)c2csc(N)n2)C(=O)C1=O (centres unmarked) :: 6.25

###

Test system: Candida albicans TA
PROTOCOL_TEXT: Anti-bacterial test, minimum inhibitory concentration on agar
Format: cell-based
MEASUREMENT_CONTEXT: Candida albicans TA; medium TSA; read-out: Minimum inhibitory concentration
MIC values, listed per item
READOUT_TYPE: MIC

1) CCN1CCN(C(=O)NC(C(=O)NC2CN(S(=O)(=O)O)C2=O)c2csc(N)n2)C(=O)C1=O (stereo not drawn) [Compound D] :: > 100 µg/mL
2) O=C(NC1CN(S(=O)(=O)O)C1=O)[C@H](NC(=O)N1CCN(N=Cc2ccco2)C1=O)c1ccccc1 (stereo partly drawn) [Compound I] :: > 100 µg/mL
3) CCCCCCCCN1CCN(C(=O)N[C@@H](C(=O)NC2CN(S(=O)(=O)O)C2=O)c2ccccc2)C(=O)C1=O (stereo partly drawn) [Compound G] :: > 100 µg/mL

###

Test system: Enterobacter cloacae IFO 12937
PROTOCOL_TEXT: Anti-bacterial test, minimum inhibitory concentration on agar
Assay type: cell-based
MEASUREMENT_CONTEXT: Enterobacter cloacae IFO 12937; medium TSA
READOUT_TYPE: Minimum inhibitory concentration

1) CCN1CCN(C(=O)N[C@H](C(=O)NC2CN(S(=O)(=O)[O-])C2=O)c2cccs2)C(=O)C1=O.[Na+] (stereo partly shown) [Compound F] :: 50 mg/L
2) O=C(NC1CN(S(=O)(=O)[O-])C1=O)C(NC(=O)N1CCN(N=Cc2ccco2)C1=O)c1cccs1.[Na+] (stereo not shown) [Compound L] :: 25 mg/L
3) CCN1CCN(C(=O)NC(C(=O)NC2CN(S(=O)(=O)[O-])C2=O)c2cccs2)C(=O)C1=O.[Na+] (racemic) [Compound E] :: 3.13 mg/L
4) CCCCCCCCN1CCN(C(=O)NC(C(=O)NC2CN(S(=O)(=O)[O-])C2=O)c2cccs2)C(=O)C1=O.[Na+] (stereo not shown) [Compound J] :: 6.25 mg/L

Origin of measurements: patent EP0021678B1
